System Under Test: T1, human LILRA5 (human, UniProt A6NI73 42-299)
T1 construct: whole, on cells; also called hLILRA5
T1 sequence (A6NI73 42-299): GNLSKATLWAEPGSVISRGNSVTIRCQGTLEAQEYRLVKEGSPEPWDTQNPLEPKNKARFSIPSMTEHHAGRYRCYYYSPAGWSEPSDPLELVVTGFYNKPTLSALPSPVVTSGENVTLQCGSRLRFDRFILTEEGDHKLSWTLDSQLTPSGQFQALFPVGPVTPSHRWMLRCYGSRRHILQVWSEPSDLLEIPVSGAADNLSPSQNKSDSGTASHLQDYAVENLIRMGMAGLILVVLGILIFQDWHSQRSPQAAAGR
Experiment Notes: FACS, 293F-hLILRA5 cells
Measured Property: MFI (MFI)
Please respond with the number in MFI and leave the unit unwritten.

Example entries and their recorded answers appear below.
INSERT INTO assay_data (binder, display_unit, reading) VALUES
  ('48-E11-H7-B5 (antibody, V domains shown, mouse monoclonal hybridoma antibody) VH: EVQLVESGGGLVKPGGSLKLSCAASGFTFSSYAMSWVRQTPEKRLEWVASITIGDDTYYPDSVKGRFTISRDHAKNILYLQVSSLRSEDTAMYSCARGVNSYGSSYRYFDVWGAGTTVTVSS VL: DIVMTQSHKFMSTSVGDRVSITCKASQDVSTAVAWYQQKPGQSPKLLIYWASTRHTGVPDRFTGSGSGTDYTLTISSVQAEDLALYYCQQHYSIPFTFGAGTKLEK', 'MFI', 359),
  ('44-F10-B6-D4 (antibody, V domains shown, mouse monoclonal hybridoma antibody) VH: EVHLVESGGGLVKPGGSLKLSCAASGFTFSSYAMSWVRQTPEKRLEWVATISSGGSYIYYPDSVKGRFTISRDNAKNTLYLQMSSLRSEDTAMYYCARQDWDGGDYYAMDYWGQGTSVTVSS VL: DIVMTQSPSSLAVSAGEKVTMSCKSSQSVLYSSNQKNFLAWYQQKPGQSPKLLIYWASTRESGVPDRFTGSGSGTDFTLTISSVQAEDLAVYYCHQYLSSLTFGAGTKLELK', 'MFI', 26.8);

// MFI lookup, key: 27-G5-E9-B8 (antibody, V domains shown, mouse monoclonal hybridoma antibody) VH: EVQLVESGGGLVQPGGSRKLSCAASGFTFSSFGMHWVRQAPEKGLEWVAYISSGSSTIYYADTVKGRFTISRDNPKNTLFLQMTSLRSEDTAMYYCARSTGTGAMDYWGQGTSVTVSS VL: DIQMTQTTSSLSASLGDSVTFSCRASQDISNYLNWYQQKPDGTVKLLISYTSRLHSGVPSRFSGSGSGTDYSLTISNLEQEDIATYFCQQGNALPWTFGGGTKLEIK
19.1

// MFI lookup, key: 2-H8-C9-F7-E2 (antibody, V domains shown, mouse monoclonal hybridoma antibody) VH: EVQLQQSGAELVKPGASVKLSCKASGYTFTNYWMHWVKQRPGQGLEWIGEINPSNGRTNYNEKFKSKATLTVDKSSSTAYMQLSSLTSEDSAVYYCARGSLTTVVPFDYWGQGTTLTVSS VL: DIQMTQTPSSLSASLGGKVTITCKASQDINNYIAWYQHKPGKGPRLLIHYTSTLQPGIPSRFSGSGSGRDYSFSISNLEPEDIATYFCLQYDILLTFGGGTKLEK
22.6

// MFI lookup, key: 10-H9-E3-G3 (antibody, V domains shown, mouse monoclonal hybridoma antibody) VH: EVQRVESGGGLVQPGGSRKLSCAASGFTFSSFGMHWVRQAPEKGLEWVAYISSGSSAMYYADTVKGRFTISRDNPKNTLFLQMTSLRSEDTAMYYCARSDGKGAMDYWGQGTSVTVSS VL: DIQMTQTTSSLSASLGDRVTISCRASQDISNYLNWYQQKPDGTVKLLVYYTSRLHSGVPSRFSGSGSGTDYSLTISNLEQEDIATYFCQQGNTLPWTFGGGTKLEIK
25

// MFI lookup, key: 43-D12-F3-G11 (antibody, V domains shown, mouse monoclonal hybridoma antibody) VH: EVQVVESGPGLVAPSQSLSITCTVSGFSLTSYGVSWVRQPPGKGLEWLGVIWADGSTNYHSALLSRLSISKDNSKSQVFLKLNSLQTDDTATYYCAKGHWDGFAYWGQGTLVAVSA VL: DIVLTQSPAIMSTSPGEKVTLTCSASSSITSSYLYWYQQKPGSSPKLWIYSTSNLASGVPARFSGSGSGTSYYLTISSMEAEDAASYFCHQWSSYPPTFGGGTKLELK
172

// MFI lookup, key: 2-H1-D7-E5-D5 (antibody, V domains shown, mouse monoclonal hybridoma antibody) VH: EVHLVESGGGLVQPGGSRKLSCAASGFTFSSFGMHWVRQPPEKGLEWVAYISSGSSSIYYADTVKGRFTISRDNPKNTLFLQMTSLRSEDTAMYYCARGTGTGAMDYWGQGTSVTVSS VL: DIQMTQTTSSLSASLGDRVTISCRTSQDISNYLNWYQQKPDGTVKLLIYYTSKLHSGVPSRFSGSGSGTDYSLTISNLDQEDIATYFCQQGNTLPWTFGGGTKLEIK
24.7

// MFI lookup, key: 42-C8-A12-F3-D11 (antibody, V domains shown, mouse monoclonal hybridoma antibody) VH: EVHLVESGGDLVKPGGSLKLSCAASGFTFSSHGMSWVRQTPDKRLEWVATISSGGIYTYHPDSVKGRFSISRDNAKKTLYLQMSSLKSEDTGIYYCTRGQVGNWYFDVWGAGTTVTVSS VL: DIVITQSPAIMSASPGEKVTINCSASSSVSYMHWFQQTPGTSPKLWIYSTSNLASGVPARFSGSGSGTFYSLTISRMEAEDAATYYCQQRSSYPLTFGAGTKLELK
27.9

// MFI lookup, key: 4-E6-E4-B12 (antibody, V domains shown, mouse monoclonal hybridoma antibody) VH: EVQLKESGAELVKPGASVKLSCKASGYTFTSHWMHWVKQRPGQGLEWIGEINPSNGRTNYNEKFTSKATLTVDQSSSTAYMQLSSLTSEDSAVYYCARGNLTTVVPFDYWGQGTALTVSS VL: DIVMTQSPSSLSASLGGKVTITCKASQDINKFIAWYQHKPGKGPRLLIHFTSTLQPGIPSRFSGSGSGRDYSFSISNLEPEDIATYFCLQYDLLLTFGGGTKLEIK
32.6

// MFI lookup, key: 8-B3-F6-H8 (antibody, V domains shown, mouse monoclonal hybridoma antibody) VH: EVKVIESGGGLVQPGGSLKLSCAASGFDFSRYWMSWVRQAPGKGLEWIGEINPDSSAINYTPSLKDKFIISRDNAKNTLYLQMSKVRSEDTALYYCATSMTMDYWGQGTSVTVSS VL: DIVMTQSPSSMYASLGERVTITCKASQDIKSYLSWYQQKPWKSPKTLIYYATSLADGVPSRFSGSGSGQDYSLTISSLESDDTATYYCLQHGESPYTFGGGTKLEK
24.5

Reference source: patent US20250361295A1
